Assay: amyloid nucleation score (Sup35N fusion, yeast selection) (log enrichment); library NNK3; higher = more nucleation; inactive = no reads after selection;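 note: zero at mode of non-aggregating sequences after 7 days selection at 30°C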
RECORDED_METRIC: amyloid nucleation score

# SUBSTANCE, EXPERIMENTAL_VALUE
rows = [
    ("LLLYWRRTMVALRCTYFGLT", "inactive"),
    ("MASFSRHVCMYGTLNLSGNA", "inactive"),
    ("QALGVGN", "inactive"),
    ("TYMFMVAYNVSTRPRKLLNC", "inactive"),
    ("VYFPTWFTLVFSPSKFWICI", "inactive"),
    ("GCGPLNFSVESHQCLKS", "inactive"),
    ("MGVVRFTYCDIKV", "inactive"),
    ("SLAAIYSFVYFSSDVIRSHY", 1.34),
    ("FHSSFSVYCPFNSMLASV", 0.005),
    ("WVVPSWCHSFPLMIIKRTCC", "inactive"),
    ("IVSLALSFFLDHSQVFCLNS", 1.36),
    ("TTCFTHGKLPNIRAWSIWTQ", "inactive"),
    ("EKRPNPVSICLRWIKEKAT", "inactive"),
    ("IGSFVKDKLSRRIGTGRMEI", "inactive"),
    ("TVSKCSERRVCTPGDSCVAC", "inactive"),
    ("VNESMNDIANRSDEGYFGCA", "inactive"),
    ("LKGTCFLIPYLVTSGSSLVS", "inactive"),
    ("ERLGVL", "inactive"),
    ("SVTLLFLKLYIR", "inactive"),
    ("FTCEPARFKDYQWNNEGYCL", "inactive"),
    ("GGFVLC", "inactive"),
    ("FTCQSHAILGVDDDTWGRTN", "inactive"),
    ("ELLLMCIDDVSMRFITPLEY", "inactive"),
    ("MYRCNVGLLGVFPRCNPYDA", "inactive"),
    ("TYCSYTL", "inactive"),
    ("CLIFVWATIDYNYFCLS", 0.6),
    ("KGSLGVPWLLVNSGLINGC", "inactive"),
    ("NVYYSPFCWCMPDMFFDSIC", 2.88),
    ("LHPLYRFSANSSKDLFTSRT", "inactive"),
    ("YKYLLFAFLETLGQWYLYVE", "inactive"),
    ("STPSTQDFVKQSLEARVLSS", "inactive"),
    ("STSFNIRIFMYKFAYF", 1.31),
    ("VQYFPISGDARGRQLQRI", "inactive"),
    ("YSINTFLICYYMVRPY", 2.36),
    ("RADPTRITSPSLLTIMKTHE", "inactive"),
    ("VQRISTIMINV", "inactive"),
    ("AYLGLLNSAKFFKYLRSYAW", "inactive"),
    ("VCYVKYSSLLCMNLGIRHRT", "inactive"),
    ("KMKCRVIYVLSSLIYCM", "inactive"),
    ("RLFYCVSAVRIHVCGNSKLF", "inactive"),
    ("LVRYLENIRLRS", "inactive"),
    ("VVLGADGRLPF", "inactive"),
    ("LNTRVGSFTNRLWSRMKEGG", "inactive"),
    ("SFRNKLELFQLVCMHNEPGC", "inactive"),
    ("LCGYGSGKTISG", "inactive"),
    ("RVSRADRGRCSSFYNLRVLS", "inactive"),
    ("LVWRTSINSLRMVEDNRDEV", "inactive"),
    ("FLGDYRILSLLFYI", 2.49),
    ("CEMGFLEPL", "inactive"),
    ("VFSFRTYNLYGEDNEQLLHW", "inactive"),
    ("FLGSLVSLRCKWFVAF", 0.292),
    ("HHLGRSLGIVTSLQLGIILL", "inactive"),
    ("EHVKRVRIWNSVNLVIEYMA", 0.635),
    ("SRCFNSGTYPEICVHRVLKV", "inactive"),
    ("NLAMWMDSECLRVSN", "inactive"),
    ("FNSFCAYNTRHYYVVLGGIV", 1.04),
    ("LISTNKRHTAWRYCRGIPLE", "inactive"),
    ("FRYRLWAMRDVKHSYDFSLW", "inactive"),
    ("CSYWTGYCCQIVGLKSFGLV", 2.4),
]
